Values from paper PMC10854695

- PROTOCOL_DETAILS: MTT cell viability assay, normal cells
- RUN_CONDITIONS: human, human skin fibroblasts (CCD25Sk)
List of IC50 at 72 h values.
VALUE_TYPE: IC50 at 72 h

>>> result("O=C(O)C1OC(Oc2c(-c3ccc(O)c(O)c3)oc3cc(O)cc(O)c3c2=O)C(O)C(O)C1O (stereo not shown) [Compound 27, quercetin 3-O-glucuronide]")
"> 200 µM"
>>> result("O=c1cc(-c2ccc(O)c(O)c2)oc2cc(O)cc(O)c12 [Compound 6, luteolin]")
"20.1 µM"
>>> result("O=c1c(-c2ccc(O)cc2)coc2cc(O)ccc12 [Compound 36, daidzein]")
"> 200 µM"
>>> result("O=c1cc(-c2ccc(O)cc2)oc2cc(OC3OC(CO)C(O)C(O)C3O)cc(O)c12 (stereo not shown) [Compound 3, apigenin 7-O-glucoside]")
"> 200 µM"
>>> result("COc1ccc(C2CC(=O)c3c(O)cc(OC4OC(CO)C(O)C(O)C4OC4OC(C)C(O)C(O)C4O)cc3O2)cc1O (stereo not shown) [Compound 35, hesperetin 7-O-neohesperidoside]")
"> 200 µM"
>>> result("O=c1c(O)c(-c2ccc(O)cc2)oc2cc(O)cc(O)c12 [Compound 18, kaempferol]")
"55.8 µM"
>>> result("O=C(O)C1OC(Oc2cc(O)c3c(=O)cc(-c4ccc(O)cc4)oc3c2)C(O)C(O)C1O (stereo not shown) [Compound 4, apigenin 7-O-glucuronide]")
"> 200 µM"

----------
- Test system: A375 melanoma cells;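 also: Read-out is formazan absorbance at 570 nm after 2 h with MTT, with compounds in at most 0.1% v/v DMSO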
pIC50: −log10 of the molar value.
pIC50 values for the molecules below.
VALUE_TYPE: pIC50

>>> result("COc1ccc(-c2cc(=O)c3c(O)cc(O)c([C@@H]4OC[C@@H](O)[C@H](O)[C@H]4O[C@@H]4O[C@H](CO)[C@@H](O)[C@H](O)[C@H]4O)c3o2)cc1O")
"< 3.70"
>>> result("COc1cc(-c2cc(=O)c3c(O)cc(O)c(C4OCC(O)C(O)C4OC4OC(CO)C(OC(C)=O)C(O)C4O)c3o2)ccc1OC(C)=O (centres unmarked)")
"< 3.70"
>>> result("COc1cc(-c2cc(=O)c3c(O)cc(O)c([C@@H]4OC[C@@H](O)[C@H](O)[C@H]4O[C@@H]4O[C@H](CO)[C@@H](OC(C)=O)[C@H](O)[C@H]4O)c3o2)ccc1OC(C)=O")
"< 3.70"
>>> result("O=c1cc(-c2ccc(O)c(O)c2)oc2cc(OC3OC(CO)C(O)C(O)C3OC3OCC(O)C(O)C3O)cc(O)c12 (centres unmarked) [Compound 9, luteolin 7-O-sambubioside]")
"< 3.70"
>>> result("CC(=O)Oc1ccc(-c2cc(=O)c3c(O)cc(O)c([C@@H]4OC[C@@H](O)[C@H](O)[C@H]4O[C@@H]4O[C@H](CO)[C@@H](O)[C@H](O)[C@H]4O)c3o2)cc1O")
"< 3.70"

----------
- PROTOCOL_DETAILS: Neutral red uptake (NRU) assay, normal cells
- RUN_CONDITIONS: human, human skin fibroblasts (CCD25Sk)
VALUE_TYPE: IC50 at 48 h

>>> result("O=c1cc(-c2ccccc2)oc2c(O)c(O)ccc12 [Compound 16, 7,8-dihydroxyflavone]")
"100 to 200 µM"
>>> result("COc1cc(O)c2c(=O)c(O)c(-c3ccc(O)c(O)c3)oc2c1 [Compound 25, 7-methoxyquercetin]")
"66.3 µM"
>>> result("CC1OC(OCC2OC(Oc3c(-c4ccc(O)c(O)c4)oc4cc(OC5OC(CO)C(O)C(O)C5O)cc(O)c4c3=O)C(O)C(O)C2O)C(O)C(O)C1O (stereo not drawn) [Compound 29, quercetin 3-O-rutinoside-7-O-glucoside]")
"> 200 µM"
>>> result("O=c1c(O[C@@H]2O[C@H](CO)[C@@H](O)[C@H](O)[C@H]2O)c(-c2ccc(O)cc2)oc2cc(O)cc(O)c12 [Compound 20, kaempferol 3-O-glucoside]")
"> 200 µM"
>>> result("O=c1cc(-c2ccccc2)oc2ccc(O)c(O)c12 [Compound 15, 5,6-dihydroxyflavone]")
"100 to 200 µM"
>>> result("COc1c(O)cc(O)c2c(=O)c(O)c(-c3ccc(O)cc3)oc12 [Compound 19, 8-methoxykaempferol]")
"> 200 µM"
>>> result("O=c1c(-c2ccc(O)cc2)coc2cc(O)ccc12 [Compound 36, daidzein]")
"> 200 µM"
>>> result("COc1ccc([C@@H]2CC(=O)c3c(O)cc(O)cc3O2)cc1O [Compound 33, hesperetin]")
"> 200 µM"
>>> result("O=C(O)C1OC(Oc2c(-c3ccc(O)cc3)oc3cc(O)cc(O)c3c2=O)C(O)C(O)C1O (stereo not drawn) [Compound 21, kaempferol 3-O-glucuronide]")
"> 200 µM"
>>> result("O=c1cc(-c2ccc(O)cc2)oc2cc(OC3OC(CO)C(O)C(O)C3O)cc(O)c12 (stereo not drawn) [Compound 3, apigenin 7-O-glucoside]")
"> 200 µM"
>>> result("O=c1c(O)c(-c2cc(O)c(O)c(O)c2)oc2cc(O)ccc12 [Compound 32, robinetin]")
"> 200 µM"
>>> result("C[C@@H]1O[C@@H](OC[C@H]2O[C@@H](Oc3c(-c4ccc(O)c(O)c4)oc4cc(O)cc(O)c4c3=O)[C@H](O)[C@@H](O)[C@@H]2O)[C@H](O)[C@H](O)[C@H]1O [Compound 28, quercetin 3-O-rutinoside]")
"> 200 µM"
>>> result("O=C(O)C1OC(Oc2cc(O)c3c(=O)cc(-c4ccc(O)c(O)c4)oc3c2)C(O)C(O)C1O (stereo not drawn) [Compound 8, luteolin 7-O-glucuronide]")
"> 200 µM"
>>> result("O=c1cc(-c2ccc(O)c(O)c2)oc2cc(OC3OC(CO)C(O)C(O)C3O)cc(O)c12 (stereo not drawn) [Compound 7, luteolin 7-O-glucoside]")
"100 to 200 µM"
>>> result("O=c1cc(-c2ccc(O)cc2)oc2c([C@@H]3O[C@H](CO)[C@@H](O)[C@H](O)[C@H]3O)c(O)cc(O)c12 [Compound 2, apigenin 8-C-glucoside]")
"> 200 µM"
>>> result("O=C(O)C1OC(Oc2cc(O)c3c(=O)cc(-c4ccc(O)cc4)oc3c2)C(O)C(O)C1O (stereo not drawn) [Compound 4, apigenin 7-O-glucuronide]")
"> 200 µM"
>>> result("O=c1c(O)c(-c2ccc(O)cc2)oc2cc(O)cc(O)c12 [Compound 18, kaempferol]")
"69.8 µM"
>>> result("O=c1cc(-c2ccc(O)cc2)oc2cc(O)cc(O)c12 [Compound 1, apigenin]")
"87.8 µM"
>>> result("O=c1cc(-c2ccccc2)oc2cc(O)cc(O)c12 [Compound 14, chrysin]")
"65.7 µM"
>>> result("O=c1cc(-c2ccc(O)c(O)c2)oc2cc(O)cc(O)c12 [Compound 6, luteolin]")
"45.2 µM"
>>> result("CC1OC(OCC2OC(Oc3cc(O)c4c(=O)cc(-c5ccc(O)cc5)oc4c3)C(O)C(O)C2O)C(O)C(O)C1O (stereo not drawn) [Compound 5, apigenin 7-O-rutinoside]")
"> 200 µM"
>>> result("O=c1c(O)c(-c2ccc(O)c(O)c2)oc2cc(O)cc(O)c12 [Compound 24, quercetin]")
"92.6 µM"
>>> result("COc1ccc(C2CC(=O)c3c(O)cc(OC4OC(COC5OC(C)C(O)C(O)C5O)C(O)C(O)C4O)cc3O2)cc1O (stereo not drawn) [Compound 34, hesperetin 7-O-rutinoside]")
"> 200 µM"
>>> result("O=C(O)C1OC(Oc2c(-c3ccc(O)c(O)c3)oc3cc(O)cc(O)c3c2=O)C(O)C(O)C1O (stereo not drawn) [Compound 27, quercetin 3-O-glucuronide]")
"> 200 µM"
>>> result("COc1ccc(-c2oc3c(CC=C(C)C)c(O[C@@H]4O[C@H](CO)[C@@H](O)[C@H](O)[C@H]4O)cc(O)c3c(=O)c2O[C@@H]2O[C@@H](C)[C@H](O)[C@@H](O)[C@H]2O)cc1 [Compound 23, icariin]")
"> 200 µM"
>>> result("COc1ccc(C2CC(=O)c3c(O)cc(OC4OC(CO)C(O)C(O)C4OC4OC(C)C(O)C(O)C4O)cc3O2)cc1O (stereo not drawn) [Compound 35, hesperetin 7-O-neohesperidoside]")
"> 200 µM"
>>> result("O=c1c(O)c(-c2cc(O)c(O)c(O)c2)oc2cc(O)cc(O)c12 [Compound 30, myricetin]")
"> 200 µM"

----------
Below: a set of entries, each annotated with reported IC50 at 24 h.
- PROTOCOL_DETAILS: MTT cell viability assay, normal cells;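 also: fibroblasts served as non-cancer comparison line for selectivity versus melanoma cells, MTT reduction read as absorbance at 570 nm after 2 h dye exposure, compounds in ≤0.1% DMSO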
- RUN_CONDITIONS: human, human skin fibroblasts (CCD25Sk)
VALUE_TYPE: IC50 at 24 h

>>> result("O=c1cc(-c2ccc(O)cc2)oc2c([C@@H]3O[C@H](CO)[C@@H](O)[C@H](O)[C@H]3O)c(O)cc(O)c12 [Compound 2, apigenin 8-C-glucoside]")
"> 200 µM"
>>> result("O=c1c(O[C@@H]2O[C@H](CO)[C@@H](O)[C@H](O)[C@H]2O)c(-c2ccc(O)cc2)oc2cc(O)cc(O)c12 [Compound 20, kaempferol 3-O-glucoside]")
"> 200 µM"
>>> result("O=C(O)C1OC(Oc2c(-c3ccc(O)c(O)c3)oc3cc(O)cc(O)c3c2=O)C(O)C(O)C1O (stereo not drawn) [Compound 27, quercetin 3-O-glucuronide]")
"> 200 µM"
>>> result("CC1OC(OCC2OC(Oc3cc(O)c4c(=O)cc(-c5ccc(O)cc5)oc4c3)C(O)C(O)C2O)C(O)C(O)C1O (stereo not drawn) [Compound 5, apigenin 7-O-rutinoside]")
"> 200 µM"
>>> result("O=c1c(O)c(-c2ccc(O)cc2)oc2cc(O)cc(O)c12")
"100 to 200 µM"
>>> result("CC1OC(OCC2OC(Oc3c(-c4ccc(O)c(O)c4)oc4cc(OC5OC(CO)C(O)C(O)C5O)cc(O)c4c3=O)C(O)C(O)C2O)C(O)C(O)C1O (stereo not drawn) [Compound 29, quercetin 3-O-rutinoside-7-O-glucoside]")
"> 200 µM"
